# Measured Target: M3 subtype muscarinic receptor (Sus scrofa, UniProt P11483)
# Construct: Tracheal submucosal gland cells were isolated from the tracheal epithelium; endogenous in cells
# Sequence (P11483 whole entry): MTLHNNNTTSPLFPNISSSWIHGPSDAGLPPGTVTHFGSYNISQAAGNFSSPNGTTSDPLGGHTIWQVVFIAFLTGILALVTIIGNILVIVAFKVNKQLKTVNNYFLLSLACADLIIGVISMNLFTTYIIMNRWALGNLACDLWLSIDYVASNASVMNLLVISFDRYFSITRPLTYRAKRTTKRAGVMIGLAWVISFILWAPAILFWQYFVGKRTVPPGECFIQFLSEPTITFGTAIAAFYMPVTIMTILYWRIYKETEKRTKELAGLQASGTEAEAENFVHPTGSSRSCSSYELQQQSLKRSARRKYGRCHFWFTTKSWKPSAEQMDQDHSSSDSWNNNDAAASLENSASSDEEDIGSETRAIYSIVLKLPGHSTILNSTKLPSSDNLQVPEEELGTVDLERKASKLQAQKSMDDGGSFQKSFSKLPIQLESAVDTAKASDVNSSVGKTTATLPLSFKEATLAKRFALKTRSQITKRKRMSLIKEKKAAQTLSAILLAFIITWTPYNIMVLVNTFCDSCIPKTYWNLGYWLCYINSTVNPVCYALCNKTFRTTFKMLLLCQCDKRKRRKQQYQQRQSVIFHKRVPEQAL
# Assay Procedure: ACh-induced short-circuit current (ΔIsc) in cultured airway mucus gland cells, Ussing chamber, Schild dose-ratio method
# Test Parameters: M3 muscarinic receptor induced ΔIsc, from Schild analysis; read-out: estimated Ki for inhibition of muscarinic receptors
Measured Endpoint: pKi
Numbers only, as −log10 of the molar value.

Provide pKi, tested on M3 subtype muscarinic receptor (Sus scrofa, UniProt P11483), for OCCOCCN1CCN(C(c2ccccc2)c2ccc(Cl)cc2)CC1 (stereo not shown) [Hydroxyzine] .
4.82

====

# Measured Target: H1 receptor (Sus scrofa)
# Construct: Tracheal submucosal gland cells were isolated from the tracheal epithelium; endogenous in cells; host or cells: primary swine tracheal submucosal (mucus) gland cells in culture
# Sequence (K9IVW0 1-472): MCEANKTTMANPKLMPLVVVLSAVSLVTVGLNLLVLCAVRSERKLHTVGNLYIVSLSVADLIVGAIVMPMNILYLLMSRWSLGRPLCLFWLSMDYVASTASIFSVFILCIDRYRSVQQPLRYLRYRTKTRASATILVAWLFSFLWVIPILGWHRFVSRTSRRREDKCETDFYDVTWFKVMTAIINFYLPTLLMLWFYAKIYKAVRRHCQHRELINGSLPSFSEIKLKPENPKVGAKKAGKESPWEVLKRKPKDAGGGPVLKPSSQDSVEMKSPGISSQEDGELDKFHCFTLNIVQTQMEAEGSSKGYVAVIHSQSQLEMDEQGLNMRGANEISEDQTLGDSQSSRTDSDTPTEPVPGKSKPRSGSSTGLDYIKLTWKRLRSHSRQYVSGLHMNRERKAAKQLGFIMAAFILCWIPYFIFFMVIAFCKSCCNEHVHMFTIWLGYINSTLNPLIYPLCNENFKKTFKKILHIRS
# Assay Procedure: histamine-induced short-circuit current (ΔIsc) in cultured airway mucus gland cells, Ussing chamber
# Assay type: cell-based, swine
# Test Parameters: read-out: H1 receptor inhibition (~1/2 max-μM)
Measured Endpoint: IC50 (µM)
Give bare numbers, in µM.

• O=C(O)COCCN1CCN(C(c2ccccc2)c2ccc(Cl)cc2)CC1 (centres unmarked) [Cetirizine] = 0.12

Provide IC50 value for the following molecule: OCCOCCN1CCN(C(c2ccccc2)c2ccc(Cl)cc2)CC1 (centres unmarked) [Hydroxyzine]
0.14
